measurement notes: gradient 5% acetonitrile 3 min, to 50% in 2 min, to 85% in 15 min, held 3 min, 100 µL/min
measurement parameters: column: Zorbax Extend-C18 2.1 x 50 mm; eluents: water / acetonitrile, 0.1% formic acid
Param label: returns TRUE when RP-LC retention time < 900 s, returns FALSE otherwise, including exact equality.

A record lists COc1ccc(NC(=O)C2CCCN(c3nc4cccnc4s3)C2)cc1 (stereo not given) . Is its RP-LC retention time below 900 s? TRUE

A record lists `Cc1cc(NC(=O)Cc2cc(-c3ccccc3F)on2)no1` . Is its RP-LC retention time below 900 s? TRUE

A record lists `O=C(NCCn1ncccc1=O)C1(c2cccs2)CCCC1` . Is its RP-LC retention time below 900 s? TRUE

A record lists `COC(=O)c1sc(NC(=O)COc2ccc(Cl)cc2)nc1C` . Is its RP-LC retention time below 900 s? FALSE

A record lists `Cc1cccc(NC(=O)N2CCN(c3cnn4c(C5CC5)nnc4c3)CC2)c1` . Is its RP-LC retention time below 900 s? TRUE

A record lists `COCCN(Cc1ccc(C(C)C)cc1)Cc1cc(=O)n2cccc(C)c2n1` . Is its RP-LC retention time below 900 s? TRUE

A record lists `COc1cccc(-c2cc3n(n2)CCCN(C(=O)COc2ccccc2)C3)c1` . Is its RP-LC retention time below 900 s? TRUE

A record lists `CCCN1C(=O)c2cccnc2Sc2cc(C(=O)N3CCCC3)ccc21` . Is its RP-LC retention time below 900 s? TRUE

A record lists CCNC(=O)C1CCN(S(C)(=O)=O)c2cc(Cl)ccc2O1 (stereo not given) . Is its RP-LC retention time below 900 s? TRUE

A record lists `CC(=O)Nc1cccc(-c2nc(-c3ccc4nnn(C(C)C)c4c3)no2)c1` . Is its RP-LC retention time below 900 s? TRUE

A record lists `CC1CCN(S(=O)(=O)c2ccc(-c3nnc(C(=O)NCCN4CCOCC4)o3)cc2)CC1` . Is its RP-LC retention time below 900 s? TRUE

A record lists `Cc1nc(-c2csc(S(=O)(=O)N3CCC(C(=O)NCc4ccccc4)CC3)c2)no1` . Is its RP-LC retention time below 900 s? TRUE

A record lists CCC1CN(C(=O)N2CCC(C(=O)NCCCOC)CC2)c2cc(C)ccc2O1 (stereo not given) . Is its RP-LC retention time below 900 s? TRUE

A record lists CCOc1ccc(N2CC(c3nnc(NC(=O)c4ccc(C(C)(C)C)cc4)o3)CC2=O)cc1 (stereo not given) . Is its RP-LC retention time below 900 s? FALSE

A record lists `CCc1cc(C(=O)N2CCN(CC(C)C)CC2)nc2cc(-c3ccco3)nn12` . Is its RP-LC retention time below 900 s? TRUE

A record lists `Cc1ccc(C)c(Cn2ccn3nc(-c4ccccc4)c(CO)c3c2=O)c1` . Is its RP-LC retention time below 900 s? FALSE

A record lists `CCN(CC)CCNC(=O)c1c(C)oc2c1C(=O)c1ccccc1C2=O` . Is its RP-LC retention time below 900 s? TRUE

A record lists `O=C1NC2(CCN(C(=O)Cc3ccccc3)CC2)Nc2c(Cl)cccc21` . Is its RP-LC retention time below 900 s? TRUE

A record lists Cc1cnc(C(=O)N2CCCn3ccnc3C2C2CCCC2)cn1 (stereo not given) . Is its RP-LC retention time below 900 s? TRUE

A record lists `Cc1noc(-c2cccc(OC3CN(S(=O)(=O)c4c(C)noc4C)C3)c2)n1` . Is its RP-LC retention time below 900 s? FALSE

A record lists `O=C(Cc1c[nH]c2ccccc12)N1CCC(NS(=O)(=O)c2ccc(F)cc2)CC1` . Is its RP-LC retention time below 900 s? TRUE

A record lists O=S(=O)(c1cccc(C(F)(F)F)c1)N1CCC2(CCN(c3cccnc3)C2)C1 (stereo not given) . Is its RP-LC retention time below 900 s? TRUE

A record lists `O=C(NCc1ccccc1)N1CCc2nc(-c3ccccc3)ncc2C1` . Is its RP-LC retention time below 900 s? TRUE

A record lists `COc1ccccc1-c1nc(Cn2nnc(-c3nc(-c4ccc(Cl)c(F)c4)no3)c2C)c(C)o1` . Is its RP-LC retention time below 900 s? FALSE

A record lists Cc1c(Cl)cccc1N1CC(c2nc3ccccc3[nH]2)CC1=O (stereo not given) . Is its RP-LC retention time below 900 s? TRUE

A record lists Cc1cccc(NC(=O)N2CCCC2c2nc(-c3cccc(Cl)c3)no2)c1 (stereo not given) . Is its RP-LC retention time below 900 s? FALSE

A record lists `O=S(=O)(Cc1c(F)cccc1Cl)N1CCC(CN2CCCCCC2)CC1` . Is its RP-LC retention time below 900 s? TRUE

A record lists `CCn1nccc1-c1csc(S(=O)(=O)N2CCN(c3ccccn3)CC2)c1` . Is its RP-LC retention time below 900 s? TRUE

A record lists `O=c1n(Cc2cccc(F)c2)nc2ccc(S(=O)(=O)N3CCCC3)cn12` . Is its RP-LC retention time below 900 s? TRUE

A record lists `O=C(CN1CCN(Cc2ccccc2F)C1=O)N1CCN(c2ccccc2)CC1` . Is its RP-LC retention time below 900 s? TRUE

A record lists `Cc1nn(CC(=O)NCCN2CCOCC2)c(=O)c2c(-n3cccc3)n(-c3ccc(F)cc3)nc12` . Is its RP-LC retention time below 900 s? TRUE

A record lists COCCn1ncc(N2CCC(C(=O)N(C)CC(=O)Nc3ccc(F)cc3)C2)cc1=O (stereo not given) . Is its RP-LC retention time below 900 s? TRUE
